These entries and their values trace back to ChEMBL document CHEMBL1154298.

- tested.on: Cruzipain (Trypanosoma cruzi, UniProt P25779)
- Sequence (P25779 whole entry): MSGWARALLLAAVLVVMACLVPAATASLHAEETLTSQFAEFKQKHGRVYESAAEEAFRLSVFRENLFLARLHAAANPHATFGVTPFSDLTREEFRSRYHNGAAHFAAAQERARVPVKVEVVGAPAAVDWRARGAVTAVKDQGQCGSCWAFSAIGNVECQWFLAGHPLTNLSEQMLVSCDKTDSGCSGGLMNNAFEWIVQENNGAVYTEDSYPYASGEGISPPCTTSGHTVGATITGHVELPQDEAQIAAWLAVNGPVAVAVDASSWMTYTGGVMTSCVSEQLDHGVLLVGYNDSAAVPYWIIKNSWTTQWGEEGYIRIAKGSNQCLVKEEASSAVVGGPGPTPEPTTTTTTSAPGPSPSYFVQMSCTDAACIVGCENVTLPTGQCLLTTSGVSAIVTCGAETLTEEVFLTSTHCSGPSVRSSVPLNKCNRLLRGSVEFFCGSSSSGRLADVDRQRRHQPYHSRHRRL
Each item that follows carries a reported IC50.
parameter: IC50 (nM)

smiles.notation: O=C(N[C@H](/C=C/S(=O)(=O)c1ccccc1)CCc1ccccc1)c1cc(-c2ccccn2)no1
comparison.sign: =
recorded.result: 6000
--
smiles.notation: O=C(N[C@H](/C=C/S(=O)(=O)c1ccccc1)CCc1ccccc1)[C@H]1CCCC[C@@H]1C(=O)c1ccc(Cl)cc1
comparison.sign: >
recorded.result: 100000
--
smiles.notation: O=C(N[C@H](/C=C/S(=O)(=O)c1ccccc1)CCc1ccccc1)c1cc(-c2cccnc2)no1
comparison.sign: =
recorded.result: 1000
--
smiles.notation: O=C(N[C@H](/C=C/S(=O)(=O)c1ccccc1)CCc1ccccc1)c1cc(-c2ccccc2)no1
comparison.sign: =
recorded.result: 2000
--
smiles.notation: O=C(N[C@H](/C=C/S(=O)(=O)c1ccccc1)CCc1ccccc1)[C@@H]1CCCC[C@H]1C(=O)c1ccc(Cl)cc1
comparison.sign: =
recorded.result: 50
--
smiles.notation: Cc1nc(-c2cccnc2)sc1C(=O)N[C@H](/C=C/S(=O)(=O)c1ccccc1)CCc1ccccc1
comparison.sign: =
recorded.result: 2000
--
smiles.notation: Cc1nc(-c2ccccc2)sc1C(=O)N[C@H](/C=C/S(=O)(=O)c1ccccc1)CCc1ccccc1
comparison.sign: =
recorded.result: 10000
--
smiles.notation: O=C(N[C@H](/C=C/S(=O)(=O)c1ccccc1)CCc1ccccc1)c1cc(-c2ccncc2)no1
comparison.sign: =
recorded.result: 5000
--
smiles.notation: Cc1nc(-c2cnccn2)sc1C(=O)N[C@H](/C=C/S(=O)(=O)c1ccccc1)CCc1ccccc1
comparison.sign: =
recorded.result: 1000

###

Record: log10 Ki reported on UniProtKB Q95PM0.
Sequence (Q95PM0 whole entry): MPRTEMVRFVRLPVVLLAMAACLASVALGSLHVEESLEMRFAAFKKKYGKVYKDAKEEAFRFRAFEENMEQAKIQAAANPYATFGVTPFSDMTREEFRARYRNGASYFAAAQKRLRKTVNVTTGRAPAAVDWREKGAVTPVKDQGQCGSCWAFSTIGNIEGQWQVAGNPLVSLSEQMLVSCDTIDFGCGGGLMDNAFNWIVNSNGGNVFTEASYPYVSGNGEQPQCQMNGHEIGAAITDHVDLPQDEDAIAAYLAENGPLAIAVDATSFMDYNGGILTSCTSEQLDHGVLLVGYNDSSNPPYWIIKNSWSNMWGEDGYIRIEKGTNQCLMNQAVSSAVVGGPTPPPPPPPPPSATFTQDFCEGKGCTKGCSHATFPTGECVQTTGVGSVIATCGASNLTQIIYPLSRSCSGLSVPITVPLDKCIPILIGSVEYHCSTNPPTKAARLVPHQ
parameter: log10 Ki (log10 of the value in µM)

smiles.notation: O=C(N[C@H](/C=C/S(=O)(=O)c1ccccc1)CCc1ccccc1)c1cc(-c2ccccn2)no1
log10 Ki: 0.87

smiles.notation: O=C(N[C@H](/C=C/S(=O)(=O)c1ccccc1)CCc1ccccc1)[C@H]1CCCC[C@@H]1C(=O)c1ccc(Cl)cc1
log10 Ki: 0.69

smiles.notation: Cc1nc(-c2ccccc2)sc1C(=O)N[C@H](/C=C/S(=O)(=O)c1ccccc1)CCc1ccccc1
log10 Ki: -0.49

smiles.notation: Cc1nc(-c2cnccn2)sc1C(=O)N[C@H](/C=C/S(=O)(=O)c1ccccc1)CCc1ccccc1
log10 Ki: 0.68

smiles.notation: O=C(N[C@H](/C=C/S(=O)(=O)c1ccccc1)CCc1ccccc1)c1cc(-c2ccncc2)no1
log10 Ki: 1.21

smiles.notation: O=C(N[C@H](/C=C/S(=O)(=O)c1ccccc1)CCc1ccccc1)c1cc(-c2ccccc2)no1
log10 Ki: 1.11

smiles.notation: O=C(N[C@H](/C=C/S(=O)(=O)c1ccccc1)CCc1ccccc1)[C@@H]1CCCC[C@H]1C(=O)c1ccc(Cl)cc1
log10 Ki: -0.10

###

Here's a batch of compounds along with measured pIC50 for UniProtKB Q95PM0.
pIC50: −log10 of the molar value.

smiles.notation: O=C(N[C@H](/C=C/S(=O)(=O)c1ccccc1)CCc1ccccc1)c1cc(-c2ccccn2)no1
comparison.sign: =
pIC50: 7.30

smiles.notation: Cc1nc(-c2cnccn2)sc1C(=O)N[C@H](/C=C/S(=O)(=O)c1ccccc1)CCc1ccccc1
comparison.sign: =
pIC50: 8.00

smiles.notation: O=C(N[C@H](/C=C/S(=O)(=O)c1ccccc1)CCc1ccccc1)c1cc(-c2ccccc2)no1
comparison.sign: =
pIC50: 8.00

smiles.notation: O=C(N[C@H](/C=C/S(=O)(=O)c1ccccc1)CCc1ccccc1)c1cc(-c2ccncc2)no1
comparison.sign: =
pIC50: 7.30

smiles.notation: Cc1nc(-c2ccccc2)sc1C(=O)N[C@H](/C=C/S(=O)(=O)c1ccccc1)CCc1ccccc1
comparison.sign: >
pIC50: 8.22

smiles.notation: O=C(N[C@H](/C=C/S(=O)(=O)c1ccccc1)CCc1ccccc1)[C@@H]1CCCC[C@H]1C(=O)c1ccc(Cl)cc1
comparison.sign: =
pIC50: 7.00

smiles.notation: O=C(N[C@H](/C=C/S(=O)(=O)c1ccccc1)CCc1ccccc1)[C@H]1CCCC[C@@H]1C(=O)c1ccc(Cl)cc1
comparison.sign: =
pIC50: 4.25

smiles.notation: O=C(N[C@H](/C=C/S(=O)(=O)c1ccccc1)CCc1ccccc1)c1cc(-c2cccnc2)no1
comparison.sign: =
pIC50: 8.00

smiles.notation: Cc1nc(-c2cccnc2)sc1C(=O)N[C@H](/C=C/S(=O)(=O)c1ccccc1)CCc1ccccc1
comparison.sign: =
pIC50: 7.52
